Target: Orexin/Hypocretin receptor type 1 (Homo sapiens) (UniProt O43613)
Sequence (O43613 whole entry, looked up): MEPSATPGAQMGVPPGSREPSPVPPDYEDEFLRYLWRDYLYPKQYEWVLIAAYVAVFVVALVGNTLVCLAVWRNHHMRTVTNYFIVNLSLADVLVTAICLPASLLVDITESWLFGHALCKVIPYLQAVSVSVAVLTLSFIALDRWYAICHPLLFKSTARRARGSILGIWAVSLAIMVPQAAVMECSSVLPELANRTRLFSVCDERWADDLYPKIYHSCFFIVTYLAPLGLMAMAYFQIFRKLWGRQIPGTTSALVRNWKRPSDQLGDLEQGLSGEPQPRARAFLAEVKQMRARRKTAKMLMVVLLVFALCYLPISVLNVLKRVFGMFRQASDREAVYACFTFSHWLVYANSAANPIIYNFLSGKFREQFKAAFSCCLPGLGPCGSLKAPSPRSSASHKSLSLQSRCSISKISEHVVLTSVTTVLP
Experiment: antagonists of human orexin 1 receptor (OX1R) (AID 485270);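 further: 0% = agonist challenge alone and 100% = reference antagonist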
Settings: OX1R-expressing cells, FRET antagonist read-out; at 6.6 µM; hits give high values
Screen size: about 330,000 compounds; about 5,800 (1.8%) were called active. Only a selection was taken, and actives are over-represented in it overall.
inhibition overview
Quick note: give the figure in %, leave out the unit.

Completed entries (count: 5):
> print(dat)
                                   molecule  unit.tag  recorded.value
1  COc1cc(C(=O)Nc2oc(-c3ccccc3)c(-c3ccccc3)c2C#N)cc(OC)c1OC         %            24.6
2  Cc1cccc(NS(=O)(=O)c2cccc(C(=O)NNC(=O)c3ccccc3O)c2)c1         %            29.7
3       CSc1ccc(/C=N\NC(=O)CC(=O)NC(C)C)cc1         %            9.93
4  CNC(=O)CN1C(=O)NC(c2ccccc2)(c2ccccc2)C1=O         %              27
5        COc1cc(OC)cc(-c2cc3ccc(F)cc3cn2)c1         %            18.6

Request the reported inhibition associated with CSc1ccc(/C=N/NC(=O)c2cccc(Cl)c2)cc1
44.4

###

Target: Orexin/Hypocretin receptor type 1 (Homo sapiens)
Experiment: antagonists of human orexin 1 receptor (OX1R) (AID 485270);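 further: 0% = agonist challenge alone and 100% = reference antagonist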
Conditions: OX1R-expressing cells, FRET antagonist read-out; at 6.6 µM; hits give high values
In all, about 330,000 compounds went through this assay and about 5,800 (1.8%) were called active. The sample as a whole holds a higher share of actives than the screen did.
Decide using inhibition: a value greater than or equal to 20% is y, a smaller one is n.

> print(dat)
                                   molecule  answer.label
1  CCOC(=O)C1=CN(Cc2ccc(Br)cc2)S(=O)(=O)NC1C (configuration not stated)             n
2  CC(=O)Nc1ccc(S(=O)(=O)NCC(=O)OCC(=O)c2ccc[nH]2)cc1             n
3                  N#C/C(=C1/CCCN1)c1ccccn1             n
4        O=C(Nc1ccc2ccccc2c1)Nc1ccc2snnc2c1             y

Please indicate if the recorded inhibition for N#C/C(=C1\CCCN1)c1nc(-c2ccccc2)cs1 meets or exceeds 20%.
y

Now the same for N#CC(=C1SC=CS1)c1nc(-c2ccccc2)cs1
y

Now the same for CCNC(=O)CSc1nc(-c2ccccc2)cs1
n

Now the same for CC1CCCN(C(=O)CN2C(=O)c3ccccc3S2(=O)=O)C1 (configuration not stated)
n

Now the same for O=C(CNC(=O)c1ccco1)NNC(=O)c1ccc(Br)cc1
n

Now the same for CCC(C(=O)NCc1ccc(OC)cc1)n1nc(C)n2c(cc3occc32)c1=O (configuration not stated)
n

Now the same for O=C(CC(O)(C(F)(F)F)C(F)(F)F)Nc1ccc(Cl)c(Cl)c1
y

Now the same for Cc1ccc(-c2cccc([C@H]3[C@@H]4C=CC[C@@H](C)[C@@H]4C(=O)N3Cc3ccccc3)c2)cc1
n

Now the same for CS(=O)(=O)c1ccc(C(=O)NNC(=O)c2cccs2)cc1
n

Now the same for CN(C(=O)c1cccc(NC(=O)Cc2cccc([N+](=O)[O-])c2)c1)C1CCCCC1
n

Now the same for Cc1ccc(S(=O)(=O)NC[C@H]2O[C@@H](n3cnc4c(N)ncnc43)[C@H](O)[C@@H]2O)s1
n

###

inhibition overview
Biological target: Orexin/Hypocretin receptor type 1 (Homo sapiens)
Experiment: antagonists of human orexin 1 receptor (OX1R) (AID 485270);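 further: 0% = agonist challenge alone and 100% = reference antagonist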
Conditions: OX1R-expressing cells, FRET antagonist read-out; at 6.6 µM; hits give high values
About 5,800 (1.8%) of roughly 330,000 compounds were called active. This excerpt belongs to a sample that is enriched for actives.
Quick note: give the figure in %, leave out the unit.

Completed entries (count: 2):
COMPOUND	ASSAYED SYSTEM	inhibition [%]
Cn1cncc1C#Cc1c(-c2ccsc2)sc2ccccc12	Orexin/Hypocretin receptor type 1 (Homo sapiens)	10.4
Cc1cccc(NC(=O)Nc2cccc(Oc3c(F)c(F)c(F)c(F)c3F)c2)c1	Orexin/Hypocretin receptor type 1 (Homo sapiens)	45.9

Observed inhibition on Orexin/Hypocretin receptor type 1 (Homo sapiens) for O=c1ccc2c(-c3ccccc3S(=O)(=O)O)c3ccc(O)c(O)c3oc-2c1O , please.
55.9

###

inhibition overview
Target: Orexin/Hypocretin receptor type 1 (Homo sapiens) (UniProt O43613)
Assay: antagonists of human orexin 1 receptor (OX1R) (AID 485270);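 further: 0% = agonist challenge alone and 100% = reference antagonist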
Settings: OX1R-expressing cells, FRET antagonist read-out; at 6.6 µM; hits give high values
Out of some 330,000 compounds screened, about 5,800 (1.8%) were called active. This excerpt belongs to a sample that is enriched for actives.

Completed entries (count: 5):
> print(dat)
                                   molecule  readout.kind    recorded.value
1    O=C1C=CN2CCCC2CC1 (stereo unspecified)    inhibition  13.3% (inactive)
2  Cc1cccc(NS(=O)(=O)c2ccc(C)c(C(=O)NCc3cccnc3)c2)c1    inhibition  6.94% (inactive)
3           Fc1ccccc1-c1cc2cc3c(cc2cn1)OCO3    inhibition      66% (active)
4  COc1ccc(C(=O)c2c(C)oc3cc([N+](=O)[O-])c(O)c([N+](=O)[O-])c23)cc1    inhibition  30.6% (inactive)
5  CC(=O)c1c(C)[nH]c(C(=O)COC(=O)c2cccc(S(=O)(=O)N(C)c3ccccc3)c2)c1C    inhibition    69.6% (active)

Observed inhibition on Orexin/Hypocretin receptor type 1 (Homo sapiens) (UniProt O43613) for COc1ccc(OC)c(NC(=O)COC(=O)Cc2ccsc2)c1 , please.
5.5% (inactive)

Now the same for COCC(=O)N1CCc2ccc(NC(=O)c3ccccc3Cl)cc2C1
-9.22% (inactive)

Now the same for c1ccc2c(CCN3CCNC[C@H]3Cc3cccc4ccccc34)cccc2c1
3.65% (inactive)

Now the same for COCC(C)n1c(SCC(=O)NC2CCCCC2C)nc2ccccc2c1=O (stereo unspecified)
39.7% (active)

Now the same for Cc1ccc2occ(/C=N/NC(=O)c3ccccc3C)c(=O)c2c1
11.9% (inactive)

###

Target: Orexin/Hypocretin receptor type 1 (Homo sapiens) (UniProt O43613)
Experiment: antagonists of human orexin 1 receptor (OX1R) (AID 485270);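 further: 0% = agonist challenge alone and 100% = reference antagonist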
Details: OX1R-expressing cells, FRET antagonist read-out; at 6.6 µM; hits give high values
The whole screen tested about 330,000 compounds, of which about 5,800 (1.8%) were called active. The full list was thinned out, with actives kept by preference.
inhibition overview
Quick note: give the figure in %, leave out the unit.

Completed entries (count: 8):
> print(dat)
                                   compound  readout.kind  recorded.value
1  COCCN(Cc1nc(-c2ccc(C(F)(F)F)cc2)no1)C(C)C    inhibition           -2.95
2  O=C(Nc1ccc2nc3n(c(=O)c2c1)CCCC3)c1ccc(Cl)nc1    inhibition            4.47
3  COc1cc(SC#N)ccc1N=Cc1c(C)[nH]n(-c2ccc(C)cc2)c1=O    inhibition            14.1
4  CC1CCN(S(=O)(=O)c2ccc(NC(=O)C3CC(=O)N(c4ccccc4)C3)cc2)CC1 (centres undefined)    inhibition            25.5
5  COc1ccc(CC(=O)N[C@@H](CCSC)c2nc3ccccc3[nH]2)cc1    inhibition            33.1
6  COc1cnn(-c2ccc([N+](=O)[O-])cc2)c(=O)c1Cl    inhibition            49.7
7  CSCCC(NC(=O)c1cc([N+](=O)[O-])cc([N+](=O)[O-])c1)c1nc2ccccc2[nH]1 (centres undefined)    inhibition              82
8  COc1ccc(NC(=O)Nc2ccc3c(c2)C(=O)N([C@H](C)CO)C[C@H](C)[C@@H](CN(C)C(=O)Nc2ccc4c(c2)OCO4)O3)cc1    inhibition            8.87

Lab note: next compound to report on.
Observed inhibition on Orexin/Hypocretin receptor type 1 (Homo sapiens) (UniProt O43613) for Cc1cc(C(C)(C)C)oc1C(=O)N(CC(=O)NC1CCCC1)Cc1ccc(Cl)cc1 , please.
22.5

###

inhibition overview
Target: Orexin/Hypocretin receptor type 1 (Homo sapiens) (UniProt O43613)
Test: antagonists of human orexin 1 receptor (OX1R) (AID 485270);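 further: 0% = agonist challenge alone and 100% = reference antagonist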
Settings: OX1R-expressing cells, FRET antagonist read-out; at 6.6 µM; hits give high values
Out of some 330,000 compounds screened, about 5,800 (1.8%) were called active. Shown is part of a subset that was picked to be rich in actives.
Quick note: give the figure in %, leave out the unit.

Completed entries (count: 2):
COMPOUND	inhibition (%)
O=C(NCC1CCCO1)c1cc(-c2ccccc2)nc2ccccc12 (stereo not drawn)	-0.29
O=C1N[C@H](Cc2ccccc2)C(=O)N[C@H]1Cc1cn(S(=O)(=O)c2ccccc2)c2ccccc12	24.8

Request the reported inhibition associated with O=C1COc2ccc(C(=O)COC(=O)CCOc3ccccc3)cc2N1
4.75

Now the same for C[C@H](CO)N1C[C@H](C)[C@@H](CN(C)S(=O)(=O)c2ccc(F)cc2)Oc2c(NC(=O)Nc3ccccc3)cccc2C1=O
3.72

Now the same for O=C1OC[C@@H]2CCCN2C(=O)[C@H](CC(=O)N(CCO)Cc2ccccc2)C/C=C\CC[C@@H]1Cc1ccc(F)cc1
4.88

Now the same for CC1O[C@H](OC2C(COC3OC(CO)C(O)[C@H](O)C3O)OC(OC3CC[C@]4(C)C(CC[C@@]5(C)[C@@H]4C=C[C@]46OC[C@@]7(CCC(C)(C)C[C@H]74)C(O)C[C@@]56C)C3(C)C)C(O)C2O)C(O)C(O)C1O (stereo partly drawn)
0.25

Now the same for Cc1cccc(NC(=O)CSc2nc3[nH]ncc3c(=O)[nH]2)c1
10.4

Now the same for COc1ccc(CCNC(=O)Cn2c(=O)n(CC3CCCO3)c(=O)c3ccccc32)cc1OC (stereo not drawn)
7.5
